Parameter EC50: see the listing below.
assayed_target: T1, membrane-bound human MSLN (on CHOK1-hu MSLN cells and endogenously on COV644 cells) (human, UniProt Q13421 296-598)
T1 construct: whole, on cells; The assay field of each row says which cell line carried the protein; also called mesothelin; cell surface MSLN
T1 sequence (Q13421 other isoform, or with tags, fused parts or gaps limits assumed): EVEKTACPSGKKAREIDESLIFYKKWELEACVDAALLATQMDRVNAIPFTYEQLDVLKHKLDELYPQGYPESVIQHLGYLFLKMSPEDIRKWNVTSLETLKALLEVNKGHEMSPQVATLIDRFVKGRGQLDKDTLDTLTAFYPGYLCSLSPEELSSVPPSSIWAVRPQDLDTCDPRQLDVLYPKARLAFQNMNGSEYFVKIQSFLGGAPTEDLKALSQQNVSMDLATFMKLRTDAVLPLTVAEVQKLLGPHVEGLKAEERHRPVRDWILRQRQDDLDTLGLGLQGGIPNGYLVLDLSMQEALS
protocol: flow cytometry on COV644 cells
parameter: EC50

PR300159-3 (antibody, V domains shown, PTM removal variant of PR300159: heavy chain G33A and G55A) VH: QVQLVESGGGVVQPGRSLRLSCAASGFTFSSDAMNWVRQAPGKGLEWVAVIWNDASNKYYADSVKGRFTISRDNSKNTLYLQMNSLRAEDTAVYYCARDRGPLWPLDYWGQGTLVTVSS VL: DIQMTQSPSTLSASVGDRVTITCRASQSISRWLAWYQQKPGKAPKLLIYKASSLESGVPSRFSGSGSGTEFTLTISNLQPDDFATFYCQQYNSYSRTFGQGTKVEIKR: 2.14 nM
PR300159-6 (antibody, V domains shown, PTM removal variant of PR300159: light chain S93T) VH: QVQLVESGGGVVQPGRSLRLSCAASGFTFSSDGMNWVRQAPGKGLEWVAVIWNDGSNKYYADSVKGRFTISRDNSKNTLYLQMNSLRAEDTAVYYCARDRGPLWPLDYWGQGTLVTVSS VL: DIQMTQSPSTLSASVGDRVTITCRASQSISRWLAWYQQKPGKAPKLLIYKASSLESGVPSRFSGSGSGTEFTLTISNLQPDDFATFYCQQYNTYSRTFGQGTKVEIKR: 4.07 nM
PR300159 (antibody, V domains shown, Parental antibody from Harbour H2L2 mice) VH: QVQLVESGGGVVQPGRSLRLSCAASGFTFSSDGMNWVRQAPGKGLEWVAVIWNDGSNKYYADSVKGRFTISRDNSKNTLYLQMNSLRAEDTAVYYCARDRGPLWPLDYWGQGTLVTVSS VL: DIQMTQSPSTLSASVGDRVTITCRASQSISRWLAWYQQKPGKAPKLLIYKASSLESGVPSRFSGSGSGTEFTLTISNLQPDDFATFYCQQYNSYSRTFGQGTKVEIKR: 1.99 nM
